# TARGET_OR_SYSTEM: recombinant soluble homotrimeric HA of A/swine/Ontario/01911-2/99 (H4N6) (Influenza A virus A/Swine/Ontario/01911-2/99 (H4N6))
# ASSAY_EXPLANATION: trimeric HA microarray, transfection supernatant set 2
# ASSAY_SETUP: remark: other sources report otherwise
# Trimeric HA Binding: RLU annotations
MEASURE_NAME: Trimeric HA Binding: RLU (RLU)

- BINDER: "TCN-528 (5087_P17) (antibody, V domains shown) VH: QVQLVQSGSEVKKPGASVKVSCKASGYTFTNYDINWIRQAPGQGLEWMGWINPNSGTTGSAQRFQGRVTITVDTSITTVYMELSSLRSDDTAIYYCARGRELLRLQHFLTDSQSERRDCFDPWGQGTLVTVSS VL: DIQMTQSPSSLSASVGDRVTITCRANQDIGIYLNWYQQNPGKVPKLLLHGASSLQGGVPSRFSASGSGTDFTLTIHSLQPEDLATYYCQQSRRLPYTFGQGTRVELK"
  MEASURE_NAME: "Trimeric HA Binding: RLU"
  UNIT_STRING: "RLU"
  MEASURED_VALUE: 49200
- BINDER: "TCN-527 (5086_C06) (antibody, V domains shown) VH: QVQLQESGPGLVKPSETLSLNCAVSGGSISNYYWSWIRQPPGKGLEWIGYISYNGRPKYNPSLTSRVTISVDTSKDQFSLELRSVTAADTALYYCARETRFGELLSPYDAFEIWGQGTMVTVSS VL: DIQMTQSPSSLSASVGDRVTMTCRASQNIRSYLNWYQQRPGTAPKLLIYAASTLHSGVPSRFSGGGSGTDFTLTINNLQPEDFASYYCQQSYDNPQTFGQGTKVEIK"
  MEASURE_NAME: "Trimeric HA Binding: RLU"
  UNIT_STRING: "RLU"
  MEASURED_VALUE: 30100
- BINDER: "TCN-504 (3251_K17) (antibody, V domains shown) VH: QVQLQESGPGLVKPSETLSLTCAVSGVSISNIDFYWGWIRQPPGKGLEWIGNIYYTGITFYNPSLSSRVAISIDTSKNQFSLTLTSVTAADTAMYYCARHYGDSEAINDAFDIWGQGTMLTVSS VL: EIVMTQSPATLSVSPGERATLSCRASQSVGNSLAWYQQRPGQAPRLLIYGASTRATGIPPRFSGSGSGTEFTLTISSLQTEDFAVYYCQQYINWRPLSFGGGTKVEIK"
  MEASURE_NAME: "Trimeric HA Binding: RLU"
  UNIT_STRING: "RLU"
  MEASURED_VALUE: 32500
- BINDER: "TCN-563 (5237_B21) (antibody, V domains shown) VH: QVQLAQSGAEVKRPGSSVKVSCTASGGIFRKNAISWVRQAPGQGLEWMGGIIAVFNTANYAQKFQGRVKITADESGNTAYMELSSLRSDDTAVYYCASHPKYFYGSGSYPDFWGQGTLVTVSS VL: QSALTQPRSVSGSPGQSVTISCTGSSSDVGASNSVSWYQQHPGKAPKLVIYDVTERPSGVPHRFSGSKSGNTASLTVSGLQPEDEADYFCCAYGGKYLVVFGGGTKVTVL"
  MEASURE_NAME: "Trimeric HA Binding: RLU"
  UNIT_STRING: "RLU"
  MEASURED_VALUE: 2250
